Biological target: Inhibitor of nuclear factor kappa-B kinase subunit beta (Homo sapiens) (UniProt O14920);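 further: values are mean percent inhibition of IKKB, part of the GSK PKIS screening data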
Sequence (O14920 whole entry): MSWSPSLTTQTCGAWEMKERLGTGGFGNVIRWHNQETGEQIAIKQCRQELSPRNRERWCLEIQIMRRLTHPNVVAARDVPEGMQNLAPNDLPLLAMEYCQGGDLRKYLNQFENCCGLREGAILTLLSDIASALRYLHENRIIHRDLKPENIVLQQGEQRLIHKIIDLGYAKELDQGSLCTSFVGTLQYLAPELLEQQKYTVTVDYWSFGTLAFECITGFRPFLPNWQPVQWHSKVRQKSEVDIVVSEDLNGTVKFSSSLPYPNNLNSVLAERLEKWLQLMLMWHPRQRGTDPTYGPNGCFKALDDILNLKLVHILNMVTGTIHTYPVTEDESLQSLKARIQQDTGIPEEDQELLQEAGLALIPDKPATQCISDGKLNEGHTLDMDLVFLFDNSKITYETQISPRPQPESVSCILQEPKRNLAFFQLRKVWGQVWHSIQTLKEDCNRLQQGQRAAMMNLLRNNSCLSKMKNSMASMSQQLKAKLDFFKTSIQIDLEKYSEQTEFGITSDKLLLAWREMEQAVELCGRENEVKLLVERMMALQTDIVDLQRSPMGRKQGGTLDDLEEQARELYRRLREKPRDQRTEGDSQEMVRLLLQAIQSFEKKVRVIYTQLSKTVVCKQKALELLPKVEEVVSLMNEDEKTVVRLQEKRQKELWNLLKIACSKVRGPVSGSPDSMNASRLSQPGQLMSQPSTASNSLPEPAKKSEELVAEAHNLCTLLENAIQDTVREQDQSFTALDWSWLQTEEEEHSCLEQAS
Details: at 0.1 µM

- MOL: "CCS(=O)(=O)c1ccc(OC)c(Nc2ncc(-c3cccc(-c4ccccc4F)c3)o2)c1"
  inhibition (%): 0.01
- MOL: "Fc1ccc(-c2ncn(C3CCNCC3)c2-c2ccnc(Oc3ccc(F)c(F)c3)n2)cc1"
  inhibition (%): 6.9
- MOL: "CCS(=O)(=O)c1ccc(OC)c(Nc2ncc(-c3ccccc3Cl)o2)c1"
  inhibition (%): 1.4
- MOL: "CCN(CC)Cc1ccc(Nc2nccc(-c3cnn4ncccc34)n2)cc1"
  inhibition (%): 7.57
- MOL: "O=C(Nc1n[nH]c2cc(-c3cc(F)ccc3F)ccc12)C1CC1"
  inhibition (%): 4.95
- MOL: "COc1cc(Nc2ncc3c(C)nc(-c4cccc(Oc5ccccc5)c4)n3n2)cc(OC)c1OC"
  inhibition (%): 1.1
- MOL: "COc1ccc2cc(-c3c(-c4ccncc4)nc(-c4ccc(S(C)(=O)=O)cc4C)n3C)ccc2c1"
  inhibition (%): 6.82
- MOL: "O=C(Nc1n[nH]c2cc(-c3ccccc3)ccc12)C1CC1"
  inhibition (%): 5.63
- MOL: "COc1cc(C)c(N(C)C(=O)CN(C)C)cc1Nc1nc(Nc2cccc(F)c2C(N)=O)c2cc[nH]c2n1"
  inhibition (%): 2.96
- MOL: "Fc1ccc(-c2ncn(C3CCNCC3)c2-c2ccnc(Oc3ccc4c(c3)OCO4)n2)cc1"
  inhibition (%): 6.93
- MOL: "N#Cc1ccc(Oc2nccc(-c3c(-c4ccc(F)cc4)ncn3C3CCNCC3)n2)cc1"
  inhibition (%): 8.59
- MOL: "NS(=O)(=O)c1ccc(Nc2cc(-c3ccc(O)c(F)c3)n[nH]2)cc1"
  inhibition (%): -0.76
- MOL: "Cc1ccc(NC(=O)c2ccoc2)cc1-c1ccc(C(=O)NCC2CC2)cc1"
  inhibition (%): 3.9
- MOL: "COc1cc(Nc2ncc(-c3ccccc3)o2)cc(OC)c1OC"
  inhibition (%): 0.7
- MOL: "Clc1ccc(CNc2nccc(-c3cnn4ncccc34)n2)cc1"
  inhibition (%): 1
- MOL: "C[C@@H](Oc1cc(-n2cnc3ccc(OC4CCN(C)CC4)cc32)sc1C(N)=O)c1ccccc1Cl"
  inhibition (%): 7.4
- MOL: "COc1cccc(/C=N/Nc2ncnc3c2cnn3-c2cccc(OC)c2)c1"
  inhibition (%): 6.4
- MOL: "COc1cc2ncn(-c3cc(OCc4ccccc4C(F)(F)F)c(C(C)=O)s3)c2cc1OC"
  inhibition (%): 5.2
- MOL: "O=C1NC(=O)C(c2cccc(Cl)c2)=C1Nc1ccc(Cl)c(C(=O)O)c1"
  inhibition (%): 3.73
- MOL: "CCc1cccc(CC)c1/C=C/c1cncc(C(=O)NC)c1"
  inhibition (%): 4.86
- MOL: "COc1cc2ncn(-c3cc(OCCc4ccccc4)c(C(N)=O)s3)c2cc1OC"
  inhibition (%): 3.03

* * *

Molecular target: Discoidin domain-containing receptor 2 (Homo sapiens) (UniProt Q16832);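 further: reported figure is the mean inhibition of DDR2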
Sequence (Q16832 whole entry, the tested form may be a part): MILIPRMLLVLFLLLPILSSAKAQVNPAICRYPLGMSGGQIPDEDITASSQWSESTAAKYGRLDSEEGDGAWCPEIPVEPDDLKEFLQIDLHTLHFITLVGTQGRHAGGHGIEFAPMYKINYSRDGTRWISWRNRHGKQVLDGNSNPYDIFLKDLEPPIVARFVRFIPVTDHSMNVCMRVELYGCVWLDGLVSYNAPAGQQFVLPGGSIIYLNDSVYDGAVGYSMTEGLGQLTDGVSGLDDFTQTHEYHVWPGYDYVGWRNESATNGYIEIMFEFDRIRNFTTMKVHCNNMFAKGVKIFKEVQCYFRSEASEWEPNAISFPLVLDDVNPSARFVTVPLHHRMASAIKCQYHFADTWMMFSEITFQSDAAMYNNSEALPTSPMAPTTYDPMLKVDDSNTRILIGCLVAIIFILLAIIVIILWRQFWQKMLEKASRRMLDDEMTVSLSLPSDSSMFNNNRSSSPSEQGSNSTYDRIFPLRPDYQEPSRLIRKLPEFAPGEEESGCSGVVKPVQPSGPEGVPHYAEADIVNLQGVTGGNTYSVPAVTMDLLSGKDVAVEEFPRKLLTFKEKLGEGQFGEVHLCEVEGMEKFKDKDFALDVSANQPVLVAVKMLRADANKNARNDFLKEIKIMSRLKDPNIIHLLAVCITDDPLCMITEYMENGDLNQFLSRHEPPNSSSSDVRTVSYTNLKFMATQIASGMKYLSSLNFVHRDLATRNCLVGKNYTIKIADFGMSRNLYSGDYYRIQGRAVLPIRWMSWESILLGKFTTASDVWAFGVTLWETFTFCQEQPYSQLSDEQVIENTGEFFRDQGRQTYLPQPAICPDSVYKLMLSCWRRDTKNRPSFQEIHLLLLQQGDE
Conditions: at 1 µM

- MOL: "C[C@@H](Oc1cc(-n2cnc3ccc(OCC4CCN(C)CC4)cc32)sc1C(N)=O)c1ccccc1Cl"
  TESTED TARGET: "Discoidin domain-containing receptor 2 (Homo sapiens) (UniProt Q16832)"
  inhibition: "8.53%"
- MOL: "Fc1ccc(-c2ncn(C3CCNCC3)c2-c2ccnc(Oc3ccc4c(c3)OCO4)n2)cc1"
  TESTED TARGET: "Discoidin domain-containing receptor 2 (Homo sapiens) (UniProt Q16832)"
  inhibition: "7.88%"
- MOL: "Cc1ccc(NC(=O)c2ccoc2)cc1-c1ccc(C(=O)NCC2CC2)cc1"
  TESTED TARGET: "Discoidin domain-containing receptor 2 (Homo sapiens) (UniProt Q16832)"
  inhibition: "2.43%"
- MOL: "Cc1ccc(C(=O)NC(C)C)cc1-c1ccc(C(=O)NCC2CC2)cc1"
  TESTED TARGET: "Discoidin domain-containing receptor 2 (Homo sapiens) (UniProt Q16832)"
  inhibition: "0.09%"
- MOL: "COc1ccc(C2=C(N3CCc4ccccc43)C(=O)NC2=O)cc1"
  TESTED TARGET: "Discoidin domain-containing receptor 2 (Homo sapiens) (UniProt Q16832)"
  inhibition: "1.87%"
- MOL: "NS(=O)(=O)c1ccc(N/N=C2\\C(=O)Nc3ccc(-c4cnco4)cc32)cc1"
  TESTED TARGET: "Discoidin domain-containing receptor 2 (Homo sapiens) (UniProt Q16832)"
  inhibition: "2.15%"
- MOL: "N#Cc1ccc(Oc2nccc(-c3c(-c4ccc(F)cc4)ncn3C3CCNCC3)n2)cc1"
  TESTED TARGET: "Discoidin domain-containing receptor 2 (Homo sapiens) (UniProt Q16832)"
  inhibition: "6.42%"
- MOL: "COc1cc(Nc2ncc3c(C)nc(-c4cccc(Oc5ccccc5)c4)n3n2)cc(OC)c1OC"
  TESTED TARGET: "Discoidin domain-containing receptor 2 (Homo sapiens) (UniProt Q16832)"
  inhibition: "0.6%"

* * *

Target: Aurora kinase A (Homo sapiens);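 further: each reported value is a mean percent inhibition of Aurora-A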
Details: at 0.1 µM
RESULT TYPE: inhibition

- MOL: "Fc1ccc(-c2ncn(CCCN3CCOCC3)c2-c2ccncc2)cc1"
  ASSAY RESULT: "-0.48%"
- MOL: "CN(C)CCCNc1nccc(-c2c(-c3ccc(F)cc3)nn3cc(C(F)(F)F)ccc23)n1"
  ASSAY RESULT: "-2.9%"
- MOL: "Fc1ccc(-c2c(-c3ccncc3)nc3n2CCS3)cc1"
  ASSAY RESULT: "-2.71%"
- MOL: "Fc1ccc(-c2ncn(C3CCNCC3)c2-c2ccnc(Oc3ccc(Oc4ccccc4)cc3)n2)cc1"
  ASSAY RESULT: "2.89%"
- MOL: "COc1ccc(-c2ccc3c(NC(=O)C4CC4)n[nH]c3n2)cc1"
  ASSAY RESULT: "1.67%"
- MOL: "CCC(=O)Nc1ccc(C)c(-c2ccc(C(=O)NCC3CC3)cc2)c1"
  ASSAY RESULT: "1.72%"
- MOL: "Fc1ccc(-c2ncn(C3CCNCC3)c2-c2ccnc(Oc3ccc4c(c3)OCO4)n2)cc1"
  ASSAY RESULT: "4.04%"
- MOL: "O=C(Nc1n[nH]c2cc(-c3ccccc3)ccc12)C1CC1"
  ASSAY RESULT: "1.71%"
- MOL: "C[C@@H](Oc1cc(-n2cnc3ccc(OCC4CCN(C)CC4)cc32)sc1C(N)=O)c1ccccc1Cl"
  ASSAY RESULT: "3.84%"
- MOL: "COc1cc2ncn(-c3cc(OCCc4ccccc4)c(C(N)=O)s3)c2cc1OC"
  ASSAY RESULT: "2.54%"

* * *

Molecular target: Homeodomain-interacting protein kinase 4 (Homo sapiens);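 further: reported as mean inhibition, part of the GSK PKIS dataset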
Conditions: at 0.1 µM

- MOL: "CCS(=O)(=O)c1ccc(OC)c(Nc2ncc(-c3ccccc3Cl)o2)c1"
  inhibition: "8.83%"
- MOL: "O=C(Nc1n[nH]c2nc(-c3ccco3)ccc12)C1CC1"
  inhibition: "2.3%"
- MOL: "O=C1NC(=O)C(c2cccc(Cl)c2)=C1Nc1ccc(Cl)c(C(=O)O)c1"
  inhibition: "1.36%"

* * *

Target: Insulin receptor (Homo sapiens);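 further: reported values are averages of replicate inhibition measurements against the insulin receptor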
Details: at 0.1 µM
RESULT TYPE: inhibition (%)

- MOL: "O=C(Nc1n[nH]c2cc(-c3ccccc3)ccc12)C1CC1"
  ASSAY RESULT: 3.96
- MOL: "COc1cc(Nc2ncc3c(C)nc(-c4cccc(Oc5ccccc5)c4)n3n2)cc(OC)c1OC"
  ASSAY RESULT: 5.22
- MOL: "O=C(NCC1CC1)c1ccc(-c2cccc(C(=O)NC3CC3)c2)cc1"
  ASSAY RESULT: 1.73
- MOL: "Cc1ccc(C(=O)NC2CCC2)cc1-c1ccc(C(=O)NCC2CC2)cc1"
  ASSAY RESULT: 4.44
- MOL: "COc1cc2ncn(-c3cc(OCc4cccs4)c(C(N)=O)s3)c2cc1OC"
  ASSAY RESULT: -0.44

* * *

Biological target: Vascular endothelial growth factor receptor 3 (Homo sapiens) (UniProt P35916);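 further: mean FLT4 inhibition, averaged across replicates, from the GSK PKIS kinase inhibitor screen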
Sequence (P35916 whole entry): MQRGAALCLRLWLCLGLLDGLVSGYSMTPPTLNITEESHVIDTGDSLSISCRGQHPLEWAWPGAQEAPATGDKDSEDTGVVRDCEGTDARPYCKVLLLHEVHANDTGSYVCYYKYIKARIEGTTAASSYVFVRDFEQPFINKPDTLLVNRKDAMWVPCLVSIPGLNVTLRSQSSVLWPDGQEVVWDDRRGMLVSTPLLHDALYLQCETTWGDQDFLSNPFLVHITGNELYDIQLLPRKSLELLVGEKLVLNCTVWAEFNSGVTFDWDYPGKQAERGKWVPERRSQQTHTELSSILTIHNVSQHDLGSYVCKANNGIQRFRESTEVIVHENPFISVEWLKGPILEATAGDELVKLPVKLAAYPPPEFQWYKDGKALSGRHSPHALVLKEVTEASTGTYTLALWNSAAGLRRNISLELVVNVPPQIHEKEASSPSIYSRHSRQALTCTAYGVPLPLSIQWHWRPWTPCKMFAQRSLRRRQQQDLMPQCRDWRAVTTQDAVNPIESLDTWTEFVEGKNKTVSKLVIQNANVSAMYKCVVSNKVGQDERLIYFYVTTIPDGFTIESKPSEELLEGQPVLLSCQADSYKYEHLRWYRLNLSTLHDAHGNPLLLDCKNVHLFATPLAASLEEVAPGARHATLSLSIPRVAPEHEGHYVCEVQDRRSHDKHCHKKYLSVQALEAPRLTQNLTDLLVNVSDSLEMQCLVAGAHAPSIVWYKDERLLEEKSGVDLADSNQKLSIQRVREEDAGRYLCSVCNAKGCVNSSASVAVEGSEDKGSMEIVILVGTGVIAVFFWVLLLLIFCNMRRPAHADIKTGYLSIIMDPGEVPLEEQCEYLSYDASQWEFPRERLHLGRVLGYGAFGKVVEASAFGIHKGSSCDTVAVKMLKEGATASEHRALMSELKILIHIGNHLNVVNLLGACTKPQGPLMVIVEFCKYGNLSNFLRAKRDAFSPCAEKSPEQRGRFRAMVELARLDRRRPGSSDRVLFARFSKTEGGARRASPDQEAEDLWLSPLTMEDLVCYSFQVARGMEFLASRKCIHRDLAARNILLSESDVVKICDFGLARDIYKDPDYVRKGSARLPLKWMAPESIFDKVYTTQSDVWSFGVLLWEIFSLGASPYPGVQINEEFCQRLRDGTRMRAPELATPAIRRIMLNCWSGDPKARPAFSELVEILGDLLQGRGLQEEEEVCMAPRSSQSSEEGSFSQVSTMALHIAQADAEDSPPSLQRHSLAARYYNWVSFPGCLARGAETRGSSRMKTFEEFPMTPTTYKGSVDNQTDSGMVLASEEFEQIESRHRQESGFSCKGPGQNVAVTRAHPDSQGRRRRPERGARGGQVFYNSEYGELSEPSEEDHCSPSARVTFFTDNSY
Conditions: at 1 µM
Form field: inhibition (one value per entry).
RESULT TYPE: inhibition

- MOL: "COc1ccc(-c2ccc3c(NC(=O)C4CC4)n[nH]c3n2)cc1"
  RESULT TYPE: "inhibition"
  ASSAY RESULT: "1.31%"
- MOL: "COC(=O)Nc1nc2ccc(Sc3ccc(NC(=O)Nc4cc(C(F)(F)F)ccc4F)cc3)cc2[nH]1"
  RESULT TYPE: "inhibition"
  ASSAY RESULT: "21.7%"
- MOL: "NCc1ccc(-n2c(-c3nonc3N)nc3cnccc32)cc1"
  RESULT TYPE: "inhibition"
  ASSAY RESULT: "7.01%"
- MOL: "O=C(Nc1n[nH]c2cc(-c3ccccc3)ccc12)C1CC1"
  RESULT TYPE: "inhibition"
  ASSAY RESULT: "16.9%"
- MOL: "c1ccc(-c2n[nH]cc2-c2ccnc(-c3ccc(OCCN4CCOCC4)cc3)c2)nc1"
  RESULT TYPE: "inhibition"
  ASSAY RESULT: "8.44%"
- MOL: "O=C1NC(=O)C(c2cccc(Cl)c2)=C1Nc1ccc(Cl)c(C(=O)O)c1"
  RESULT TYPE: "inhibition"
  ASSAY RESULT: "12.2%"
